Source listed as ChEMBL document CHEMBL4251698.

# protocol_summary: Inhibition of calpain in rat hippocampal slices assessed as reduction in NMDA-induced intracellular spectrin cleavage
# Type: cell-based

{"columns": ["molecule", "unit_annotation", "IC50"],
 "data": [
  ["O=C(NC1CC1)C(=O)C(Cc1ccccc1)NC(=O)c1cccnc1-n1ccc(-c2ccccc2)n1 (configuration not stated)", "nM", 750],
  ["CONC(=O)C(=O)C(Cc1ccccc1)NC(=O)c1cccnc1-n1ccc(-c2ccccc2)n1 (configuration not stated)", "nM", 2150]
]}

----------
# tested_on: Calpain-1 catalytic subunit (Homo sapiens, UniProt P07384)
# Sequence (P07384 whole entry): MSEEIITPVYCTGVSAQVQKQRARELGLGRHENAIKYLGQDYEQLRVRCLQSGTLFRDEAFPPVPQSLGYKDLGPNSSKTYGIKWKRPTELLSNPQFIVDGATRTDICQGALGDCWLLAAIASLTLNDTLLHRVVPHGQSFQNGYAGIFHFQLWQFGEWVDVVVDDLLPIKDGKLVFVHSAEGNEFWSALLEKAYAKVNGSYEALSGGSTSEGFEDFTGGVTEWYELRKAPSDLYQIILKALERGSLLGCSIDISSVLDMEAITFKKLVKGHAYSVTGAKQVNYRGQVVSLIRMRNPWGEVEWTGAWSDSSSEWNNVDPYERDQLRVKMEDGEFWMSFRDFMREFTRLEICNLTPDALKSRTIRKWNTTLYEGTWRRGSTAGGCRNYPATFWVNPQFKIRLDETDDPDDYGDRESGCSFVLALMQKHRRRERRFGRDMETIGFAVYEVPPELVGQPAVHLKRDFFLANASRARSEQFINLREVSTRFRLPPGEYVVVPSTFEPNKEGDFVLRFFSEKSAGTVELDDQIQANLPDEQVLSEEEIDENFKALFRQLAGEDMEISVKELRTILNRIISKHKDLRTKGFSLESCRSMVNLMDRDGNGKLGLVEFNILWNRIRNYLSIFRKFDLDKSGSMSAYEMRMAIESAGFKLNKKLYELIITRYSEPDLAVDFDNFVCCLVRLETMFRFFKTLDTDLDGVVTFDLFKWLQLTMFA
# protocol_summary: Inhibition of human erythrocyte calpain 1 using Suc-Leu-Tyr-AMC as substrate by fluorescence assay
Below is a list of entries, each paired with its recorded Ki value.
endpoint_name: Ki (nM)

{"columns": ["molecule", "operator", "readout_value"],
 "data": [
  ["CN(C)CCONC(=O)C(=O)C(Cc1ccccc1)NC(=O)c1cccnc1-n1ccc(-c2ccccc2)n1 (stereo not drawn)", "=", 1060],
  ["CCNC(=O)C(=O)C(Cc1ccccc1)NC(=O)c1cccnc1-n1ccc(-c2ccccc2)n1 (stereo not drawn)", "=", 690],
  ["O=C(NOCC1CC1)C(=O)C(Cc1ccccc1)NC(=O)c1cccnc1-n1ccc(-c2ccccc2)n1 (stereo not drawn)", "=", 90],
  ["CCONC(=O)C(=O)C(Cc1ccccc1)NC(=O)c1cccnc1-n1ccc(-c2ccccc2)n1 (stereo not drawn)", "=", 110],
  ["O=C(NC1CCCC1)C(=O)C(Cc1ccccc1)NC(=O)c1cccnc1-n1ccc(-c2ccccc2)n1 (stereo not drawn)", "=", 1350],
  ["O=C(NCC1CC1)C(=O)C(Cc1ccccc1)NC(=O)c1cccnc1-n1ccc(-c2ccccc2)n1 (stereo not drawn)", "=", 550],
  ["C=CCONC(=O)C(=O)C(Cc1ccccc1)NC(=O)c1cccnc1-n1ccc(-c2ccccc2)n1 (stereo not drawn)", "=", 185],
  ["CC1(NC(=O)C(=O)C(Cc2ccccc2)NC(=O)c2cccnc2-n2ccc(-c3ccccc3)n2)CC1 (stereo not drawn)", ">", 5000],
  ["O=C(NC1CC1)C(=O)C(Cc1ccccc1)NC(=O)c1cccnc1-n1ccc(-c2ccccc2)n1 (stereo not drawn)", "=", 205],
  ["O=C(NOC1CCC1)C(=O)C(Cc1ccccc1)NC(=O)c1cccnc1-n1ccc(-c2ccccc2)n1 (stereo not drawn)", "=", 150],
  ["CC(C)NC(=O)C(=O)C(Cc1ccccc1)NC(=O)c1cccnc1-n1ccc(-c2ccccc2)n1 (stereo not drawn)", "=", 2600],
  ["CNC(=O)C(=O)C(Cc1ccccc1)NC(=O)c1cccnc1-n1ccc(-c2ccccc2)n1 (stereo not drawn)", "=", 380],
  ["CCCONC(=O)C(=O)C(Cc1ccccc1)NC(=O)c1cccnc1-n1ccc(-c2ccccc2)n1 (stereo not drawn)", "=", 75],
  ["N#CCNC(=O)C(=O)C(Cc1ccccc1)NC(=O)c1cccnc1-n1ccc(-c2ccccc2)n1 (stereo not drawn)", "=", 950],
  ["O=C(NC1CCC1)C(=O)C(Cc1ccccc1)NC(=O)c1cccnc1-n1ccc(-c2ccccc2)n1 (stereo not drawn)", "=", 490],
  ["O=C(NCc1nc2ccccc2o1)C(=O)C(Cc1ccccc1)NC(=O)c1cccnc1-n1ccc(-c2ccccc2)n1 (stereo not drawn)", "=", 210],
  ["C=CCNC(=O)C(=O)C(Cc1ccccc1)NC(=O)c1cccnc1-n1ccc(-c2ccccc2)n1 (stereo not drawn)", "=", 470],
  ["O=C(NCc1ccccc1)C(=O)C(Cc1ccccc1)NC(=O)c1cccnc1-n1ccc(-c2ccccc2)n1 (stereo not drawn)", "=", 110]
]}

----------
# protocol_summary: Intrinsic clearance in human liver cytosol at 0.5 uM measured after 15 mins in presence of NADPH by spectrometric method
# Assay type: ADME, subcellular
# measurement_conditions: read-out: CLH

{"columns": ["compound", "microsomal CLint at […], 0.5 µM"],
 "data": [
  ["CCONC(=O)C(=O)C(Cc1ccccc1)NC(=O)c1cccnc1-n1ccc(-c2ccccc2)n1 (stereo unspecified)", "< 1 µL/min/mg"]
]}

----------
# protocol_summary: Intrinsic clearance in cynomolgus monkey liver cytosol at 0.5 uM measured after 15 mins in presence of NADPH by spectrometric method
# Type: ADME, subcellular, Macaca fascicularis
# measurement_conditions: read-out: CLH

{"columns": ["compound", "microsomal CLint at […], 0.5 µM"],
 "data": [
  ["CCONC(=O)C(=O)C(Cc1ccccc1)NC(=O)c1cccnc1-n1ccc(-c2ccccc2)n1 (stereo unspecified)", "< 1 µL/min/mg"]
]}

----------
# tested_on: Calpain-1 catalytic subunit (Homo sapiens, UniProt P07384)
# protocol_summary: Inhibition of human erythrocyte calpain 1 using Suc-Leu-Tyr-AMC as substrate by fluorescence assay
endpoint_name: Ki (nM)

{"columns": ["compound", "tested_on", "readout_value"],
 "data": [
  ["O=C(NOCCN1CCOCC1)C(=O)C(Cc1ccccc1)NC(=O)c1cccnc1-n1ccc(-c2ccccc2)n1 (stereo unspecified)", "Calpain-1 catalytic subunit (Homo sapiens, UniProt P07384)", 265],
  ["CCCNC(=O)C(=O)C(Cc1ccccc1)NC(=O)c1cccnc1-n1ccc(-c2ccccc2)n1 (stereo unspecified)", "Calpain-1 catalytic subunit (Homo sapiens, UniProt P07384)", 480],
  ["O=C(NCCc1ccccc1)C(=O)C(Cc1ccccc1)NC(=O)c1cccnc1-n1ccc(-c2ccccc2)n1 (stereo unspecified)", "Calpain-1 catalytic subunit (Homo sapiens, UniProt P07384)", 330],
  ["CC(C)ONC(=O)C(=O)C(Cc1ccccc1)NC(=O)c1cccnc1-n1ccc(-c2ccccc2)n1 (stereo unspecified)", "Calpain-1 catalytic subunit (Homo sapiens, UniProt P07384)", 220],
  ["O=C(NOC1CCCC1)C(=O)C(Cc1ccccc1)NC(=O)c1cccnc1-n1ccc(-c2ccccc2)n1 (stereo unspecified)", "Calpain-1 catalytic subunit (Homo sapiens, UniProt P07384)", 120],
  ["CONC(=O)C(=O)C(Cc1ccccc1)NC(=O)c1cccnc1-n1ccc(-c2ccccc2)n1 (stereo unspecified)", "Calpain-1 catalytic subunit (Homo sapiens, UniProt P07384)", 120]
]}
